Tested on: NCI/ADR-RES ovarian
Assay: NCI-60 one-dose screen, 48 h (100 = growth as untreated, 0 = no growth, -100 = all killed)
Details: 10 µM unless noted
Compounds without any hit were thinned out: in the full panel of roughly 83,000, 20% have a hit.
Overview of recorded growth for various molecules
Report the value in % with no unit label.

COc1cc(/C=C/C(=O)c2ccc(C)cc2)ccc1Oc1nc(Nc2ccc(F)cc2)nc(N(C)C)n1 :: 38.1

Indicate its recorded growth; the molecule in question is O=C(COc1ccc(NC(=O)Nc2ccc(Cl)c(Cl)c2)cc1)N=Nc1c(O)[nH]c2ccc(Cl)cc12
85.2

Indicate its recorded growth; the molecule in question is COc1ccc2[nH]cc(-c3cc(N)n4nc(-c5cn(C)c6ccccc56)cc4n3)c2c1
-45.3

Indicate its recorded growth; the molecule in question is COc1ccc(-c2nc3cc(C)ccc3n2CC(=O)N=Nc2c(O)[nH]c3ccccc23)cc1
-47.1

Indicate its recorded growth; the molecule in question is COc1c(F)ccc(C(=O)Nc2ccc3nc(NC(=O)C4CCCN(S(=O)(=O)C5CC5)C4)sc3c2)c1F (centres undefined)
33.2

Indicate its recorded growth; the molecule in question is Cn1cc(-c2nc(N)nnc2-c2c[nH]c3ccc(F)cc23)c2cc(Br)cnc21
0.236

Indicate its recorded growth; the molecule in question is Cn1cc(-c2cc(N)n3nc(-c4c[nH]c5ccccc45)cc3n2)c2cc(Br)cnc21
-44.6

Indicate its recorded growth; the molecule in question is COc1ccc(-c2nc3ccc(C(=O)NN4C(=O)c5ccc([N+](=O)[O-])cc5C4=O)cc3[nH]2)cc1
102

Indicate its recorded growth; the molecule in question is Nc1nc(-c2ccccc2)c(N=Nc2ccc(Cl)cc2[N+](=O)[O-])s1
101

* * *

Tested on: LOX IMVI melanoma
Experiment: NCI-60 one-dose screen, 48 h (100 = growth as untreated, 0 = no growth, -100 = all killed)
Conditions: 10 µM
About 83,000 compounds went through this panel and 20% of them were active in at least one assay; those are over-represented in the sample as a whole.
Param threshold (50%) applies to growth; output yes (1) when value >= threshold, no (0) when value < threshold.

These recorded examples may help you get a feel for the data.
COc1cccc(-c2nc(Nc3ccc(S(N)(=O)=O)cc3)c3ccccc3n2)c1 :: no (0)
O=c1oc2ccccc2cc1-c1csc(N=Nc2c(O)[nH]c3ccc(Cl)cc23)n1 :: yes (1)
CC(=O)c1c(N)c(C#N)cn1-c1ccc(Cl)cc1Cl :: yes (1)
O=c1[nH]c2ccccc2cc1CSc1nccc(-c2ccc3ccccc3c2)n1 :: yes (1)

Alright, here's another compound for you.
hey, is growth for this one >= 50%? COc1ccc2[nH]cc(-c3nnc(N)nc3-c3cn(C)c4ncc(Br)cc34)c2c1
yes (1)

* * *

Test system: CAKI-1 renal
Test: NCI-60 one-dose screen, 48 h
Details: 10 µM unless noted
Description: Growth inhibition of the CAKI-1 human tumor cell line is measured as a screen for anti-cancer activity. Cells are grown in 96 well plates and exposed to the test compound for 48 hours. Compounds are tested at a single concentration, which is 10^-5 M for most compounds. The reported endpoint is percent growth (GI% or GIPRCNT), where numbers from 0 - 100% represent growth inhibition, and numbers from -100% - 0 represent cell death. For example, a value of 40 represents 60% growth inhibition. […]
About 83,000 compounds went through this panel and 20% of them were active in at least one assay; those are over-represented in the sample as a whole. Calls of active or inactive are those of the source. How the source made its calls: active means growth percent below 10; inactive means the rest.
Assign a class; possible classes are y (active), n (inactive)

These recorded examples may help you get a feel for the data.
COc1cc2c(c(OC)c1OC)C(=O)CC(c1cccc(NC(=O)c3cc(N)ccc3Cl)c1)O2 (stereo unspecified) :: n
COc1ccccc1/C=C/C(=O)c1ccc(OC)c(S(N)(=O)=O)c1 :: n
Cc1ccc(-c2nnc3ccc(N/N=C/c4ccccc4)nn23)cc1 :: n
COc1ccc(-c2nc3cc(C)ccc3n2CC(=O)N=Nc2c(O)[nH]c3ccc(OC)cc23)cc1 :: y
O=C(c1ccc(OCCN2CCOCC2)cc1)C1[C@H](c2ccc(Cl)cc2)[C@@H](c2ccccc2)NC12C(=O)Nc1ccc(Br)cc12 (stereo partly specified) :: n

Identify the outcome logged in this assay for the compound shown: CN1CCN(/C(=N\c2sc(-c3ccccc3)nc2-c2ccccc2)c2ccccc2)CC1
n

This collection of values is drawn from PubChem BioAssay (NCI).
